System Under Test: PCSK9 (Homo sapiens)
Construct: biotin (biotinylated); purchased
Test Summary: PCSK9 Alexa FRET Plus TR-FRET assay
Format: binding

Compound	Ki
COc1ccc(C[C@@H]2NC(=O)[C@H]([C@@H](C)O)NC(=O)[C@@H]3[C@@H]4CCN3C(=O)[C@@H]3Cc5cn(c6ccc(F)cc56)CCCCCCN(Cc5ccc(cc5)CCNC(=O)[C@]5(C)CCCN5C2=O)C(=O)CCC(=O)N[C@@H](C)C(=O)N[C@H](CNC(=O)COCCOCC[N+](C)(C)CCNC(=O)COCCOCCNC(=O)COCCOCCNC(=O)CC[C@H](NC(=O)CCCCCCCCOCCCCCCCCC(=O)O)C(=O)O)C(=O)N[C@@H](Cc2cccc(c2)CNC(=O)CO4)C(=O)N3)cc1 [Ex-50]	< 6 pM

----------
System Under Test: PCSK9 (Homo sapiens)
Construct: biotin (biotinylated); purchased
Test Summary: PCSK9 Alexa FRET Plus TR-FRET assay
Format: binding
Details: Ki calculated from IC50 and KD of AF cyclic peptide Reagent B; 0.5 nM PCSK9, 960 nM AF cyclic peptide; read-out: Alexa FRET Plus TR-FRET
pKi: −log10 of the molar value.

Molecular String	pKi
COc1ccc(C[C@@H]2NC(=O)[C@H]([C@@H](C)O)NC(=O)[C@@H]3[C@@H]4CCN3C(=O)[C@@H]3Cc5cn(c6ccc(F)cc56)CCCCCCN(Cc5ccc(cc5)CCNC(=O)[C@]5(C)CCCN5C2=O)C(=O)CCC(=O)N[C@@H](C)C(=O)N[C@H](CNC(=O)CCOCCOCC[N+](C)(C)CCNC(=O)CCOCCOCC[N+](C)(C)CCNC(=O)COCCOCCNC(=O)COCCOCCNC(=O)CC[C@H](NC(=O)CC[C@H](NC(=O)CCCCCCCCCCCCCCC(=O)O)C(=O)O)C(=O)O)C(=O)N[C@@H](Cc2cccc(c2)CNC(=O)CO4)C(=O)N3)cc1	11.15
COc1ccc(C[C@@H]2NC(=O)[C@H]([C@@H](C)O)NC(=O)[C@@H]3[C@@H]4CCN3C(=O)[C@@H]3Cc5cn(c6ccc(F)cc56)CCCCCCN(Cc5ccc(cc5)CCNC(=O)[C@]5(C)CCCN5C2=O)C(=O)CCC(=O)N[C@@H](C)C(=O)N[C@H](CNC(=O)CCOCCOCC[N+](C)(C)CCNS(=O)(=O)CCCNS(=O)(=O)CCCNC(=O)CC[C@H](NC(=O)CCCCCCCCCCCCCCCCC(=O)O)C(=O)O)C(=O)N[C@@H](Cc2cccc(c2)CNC(=O)CO4)C(=O)N3)cc1	> 11.22
COc1ccc(C[C@@H]2NC(=O)[C@H]([C@@H](C)O)NC(=O)[C@@H]3[C@@H]4CCN3C(=O)[C@@H]3Cc5cn(c6ccc(F)cc56)CCCCCCN(Cc5ccc(cc5)CCNC(=O)[C@]5(C)CCCN5C2=O)C(=O)CCC(=O)N[C@@H](C)C(=O)N[C@H](CNC(=O)CCOCCOCC[N+](C)(C)CCNC(=O)COCCOCCNC(=O)COCCOCCNC(=O)CC[C@@H](NC(=O)CC[C@@H](NC(=O)CCCCCCCCCCCCCCCCC(=O)O)C(=O)O)C(=O)O)C(=O)N[C@@H](Cc2cccc(c2)CNC(=O)CO4)C(=O)N3)cc1	> 11.22
COc1ccc(C[C@@H]2NC(=O)[C@H]([C@@H](C)O)NC(=O)[C@@H]3[C@@H]4CCN3C(=O)[C@@H]3Cc5cn(c6ccc(F)cc56)CCCCCCN(Cc5ccc(cc5)CCNC(=O)[C@]5(C)CCCN5C2=O)C(=O)CCC(=O)N[C@@H](C)C(=O)N[C@H](CNC(=O)COCCOCC[N+](C)(C)CCOCCNC(=O)COCCOCCNC(=O)COCCOCCNC(=O)CC[C@H](NC(=O)CC[C@H](NC(=O)CCCCCCCCCCCCCCC(=O)O)C(=O)O)C(=O)O)C(=O)N[C@@H](Cc2cccc(c2)CNC(=O)CO4)C(=O)N3)cc1	> 11.22

----------
System Under Test: PCSK9 (Homo sapiens, UniProt Q8NBP7)
Construct: biotin (biotinylated); purchased
Sequence (Q8NBP7 153-692): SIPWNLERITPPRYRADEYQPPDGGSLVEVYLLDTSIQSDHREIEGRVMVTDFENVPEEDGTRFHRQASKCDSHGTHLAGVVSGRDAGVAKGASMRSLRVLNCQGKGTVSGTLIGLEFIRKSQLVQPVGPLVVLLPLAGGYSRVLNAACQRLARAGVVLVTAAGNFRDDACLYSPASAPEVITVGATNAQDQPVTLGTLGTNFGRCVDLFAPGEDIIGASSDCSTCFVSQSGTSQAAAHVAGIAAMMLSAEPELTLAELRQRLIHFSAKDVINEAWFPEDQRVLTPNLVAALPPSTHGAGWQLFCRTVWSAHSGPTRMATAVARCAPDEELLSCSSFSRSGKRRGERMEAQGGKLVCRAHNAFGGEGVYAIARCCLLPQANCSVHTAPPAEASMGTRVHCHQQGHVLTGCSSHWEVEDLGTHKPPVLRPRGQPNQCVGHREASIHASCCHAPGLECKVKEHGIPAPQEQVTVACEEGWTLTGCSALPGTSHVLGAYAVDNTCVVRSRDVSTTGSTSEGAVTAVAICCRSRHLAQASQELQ
Test Summary: PCSK9 Alexa FRET Plus TR-FRET assay
Assay type: binding
Details: Ki calculated from IC50 and KD of AF cyclic peptide Reagent B; 0.5 nM PCSK9, 960 nM AF cyclic peptide; read-out: Alexa FRET Plus TR-FRET
Method: A separate solution containing 1920 nM of the AlexaFluor tagged cyclic peptide is made in the same buffer system. […] The reaction is incubated at room temperature for at least two hours prior to fluorescence measurements using an Envision Multilabel Reader. IC50 values are determined by fitting data to a sigmoidal dose-response curve using nonlinear regression. Ki is then calculated from the Ic50 and the KD of AF cyclic peptide. […]
Property Measured: Ki

Molecular String	Test Result
COc1ccc(C[C@@H]2NC(=O)[C@H]([C@@H](C)O)NC(=O)[C@@H]3[C@@H]4CCN3C(=O)[C@@H]3Cc5cn(c6ccc(F)cc56)CCCCCCN(Cc5ccc(cc5)CCNC(=O)[C@]5(C)CCCN5C2=O)C(=O)CCC(=O)N[C@@H](C)C(=O)N[C@H](CNC(=O)COCCOCC[N+](C)(C)CCNC(=O)COCCOCCNC(=O)COCCOCCNC(=O)CC[C@H](NC(=O)CCCCCCCCCCCCCCCCC(=O)O)C(=O)O)C(=O)N[C@@H](Cc2cccc(c2)CNC(=O)CO4)C(=O)N3)cc1	8 pM
COc1ccc(C[C@@H]2NC(=O)[C@H]([C@@H](C)O)NC(=O)[C@@H]3[C@@H]4CCN3C(=O)[C@@H]3Cc5cn(c6ccc(F)cc56)CCCCCCN(Cc5ccc(cc5)CCNC(=O)[C@]5(C)CCCN5C2=O)C(=O)CCC(=O)N[C@@H](C)C(=O)N[C@H](CNC(=O)CCOCCOCC[N+](C)(C)CCNC(=O)CC[C@H](NC(=O)COCCOCCNC(=O)CC[C@H](NC(=O)CCCCCCCCCCCCCCCCC(=O)O)C(=O)O)C(=O)O)C(=O)N[C@@H](Cc2cccc(c2)CNC(=O)CO4)C(=O)N3)cc1	21 pM
COc1ccc(C[C@@H]2NC(=O)[C@H]([C@@H](C)O)NC(=O)[C@@H]3[C@@H]4CCN3C(=O)[C@@H]3Cc5cn(c6ccc(F)cc56)CCCCCCN(Cc5ccc(cc5)CCNC(=O)[C@]5(C)CCCN5C2=O)C(=O)CCC(=O)N[C@@H](C)C(=O)N[C@H](CNC(=O)CCOCCOCCNC(=O)CCCCCCCCCCCCCCCCC(=O)O)C(=O)N[C@@H](Cc2cccc(c2)CNC(=O)CO4)C(=O)N3)cc1	9 pM
COc1ccc(C[C@@H]2NC(=O)[C@H]([C@@H](C)O)NC(=O)[C@@H]3[C@@H]4CCN3C(=O)[C@@H]3Cc5cn(c6ccc(F)cc56)CCCCCCN(Cc5ccc(cc5)CCNC(=O)[C@]5(C)CCCN5C2=O)C(=O)CCC(=O)N[C@@H](CNC(=O)CCOCCOCC[N+](C)(C)CCNC(=O)COCCOCCNC(=O)COCCOCCNC(=O)CC[C@@H](NC(=O)CC[C@@H](NC(=O)CCCCCCCCCCCCCCCCC(=O)O)C(=O)O)C(=O)O)C(=O)N[C@H](C)C(=O)N[C@@H](Cc2cccc(c2)CNC(=O)CO4)C(=O)N3)cc1	20 pM
COc1ccc(C[C@@H]2NC(=O)[C@H]([C@@H](C)O)NC(=O)[C@@H]3[C@@H]4CCN3C(=O)[C@@H]3Cc5cn(c6ccc(F)cc56)CCCCCCN(Cc5ccc(cc5)CCNC(=O)[C@]5(C)CCCN5C2=O)C(=O)CCC(=O)N[C@@H](CNC(=O)CCOCCOCC[N+](C)(C)CCNC(=O)COCCOCCNC(=O)COCCOCCNC(=O)CC[C@H](NC(=O)CCCCCCCCCCCCCCC(=O)O)C(=O)O)C(=O)N[C@H](C)C(=O)N[C@@H](Cc2cccc(c2)CNC(=O)CO4)C(=O)N3)cc1	9 pM

----------
System Under Test: PCSK9 (Homo sapiens, UniProt Q8NBP7)
Construct: biotin (biotinylated); purchased
Test Summary: PCSK9 Alexa FRET Ultra TR-FRET assay
Format: binding
Details: Ki Ultra, calculated from IC50 and KD of AF cyclic peptide; 0.5 nM PCSK9, 960 nM AF cyclic peptide; read-out: Alexa FRET Ultra TR-FRET
Measured log10(Ki) by item
Property Measured: log10(Ki) (log10 of the value in pM)

Compound	Test Result
COc1ccc(C[C@@H]2NC(=O)[C@H]([C@@H](C)O)NC(=O)[C@@H]3[C@@H]4CCN3C(=O)[C@@H]3Cc5cn(c6ccc(F)cc56)CCCCCCN(Cc5ccc(cc5)CCNC(=O)[C@]5(C)CCCN5C2=O)C(=O)CCC(=O)N[C@@H](CNC(=O)COCCOCCNC(=O)COCCOCCNC(=O)CC[C@H](NC(=O)CCCCCCCCCCCCCCCCC(=O)O)C(=O)O)C(=O)N[C@H](CNC(=O)CCOCCOCC[N+](C)(C)C)C(=O)N[C@@H](Cc2cccc(c2)CNC(=O)CO4)C(=O)N3)cc1	1.65
COc1ccc(C[C@@H]2NC(=O)[C@H]([C@@H](C)O)NC(=O)[C@@H]3[C@@H]4CCN3C(=O)[C@@H]3Cc5cn(c6ccc(F)cc56)CCCCCCN(Cc5ccc(cc5)CCNC(=O)[C@]5(C)CCCN5C2=O)C(=O)CCC(=O)N[C@@H](C)C(=O)N[C@H](CNC(=O)CCOCCOCC[N+](C)(C)CCNC(=O)Cc2c(C)n(C(=O)c5ccc(Cl)cc5)c5ccc(OC)cc25)C(=O)N[C@@H](Cc2cccc(c2)CNC(=O)CO4)C(=O)N3)cc1	0.00
COc1ccc(C[C@@H]2NC(=O)[C@H]([C@@H](C)O)NC(=O)[C@@H]3[C@@H]4CCN3C(=O)[C@@H]3Cc5cn(c6ccc(F)cc56)CCCCCCN(Cc5ccc(cc5)CCNC(=O)[C@]5(C)CCCN5C2=O)C(=O)CCC(=O)N[C@@H](C)C(=O)N[C@H](CNC(=O)CCOCCOCC[N+](C)(C)CCNC(=O)COCCOCCNC(=O)COCCOCCNC(=O)CCC(CS(=O)(=O)O)NC(=O)CCCCCCCCCCCCCCCCC(=O)O)C(=O)N[C@@H](Cc2cccc(c2)CNC(=O)CO4)C(=O)N3)cc1 (some centres unmarked)	0.70
COc1ccc(C[C@@H]2NC(=O)[C@H]([C@@H](C)O)NC(=O)[C@@H]3[C@@H]4CCN3C(=O)[C@@H]3Cc5cn(c6ccc(F)cc56)CCCCCCN(Cc5ccc(cc5)CCNC(=O)[C@]5(C)CCCN5C2=O)C(=O)CCC(=O)N[C@@H](C)C(=O)N[C@H](CNC(=O)CCOCCOCC[N+](C)(C)CCNC(=O)COCCOCCNC(=O)COCCOCCNC(=O)CC[C@H](NC(=O)CCCCCCCCCCCCCCC(=O)N[C@@H](CC(=O)O)C(=O)O)C(=O)O)C(=O)N[C@@H](Cc2cccc(c2)CNC(=O)CO4)C(=O)N3)cc1	0.60
COc1ccc(C[C@@H]2NC(=O)[C@H]([C@@H](C)O)NC(=O)[C@@H]3[C@@H]4CCN3C(=O)[C@@H]3Cc5cn(c6ccc(F)cc56)CCCCCCN(Cc5ccc(cc5)CCNC(=O)[C@]5(C)CCCN5C2=O)C(=O)CCC(=O)N[C@@H](C)C(=O)N[C@H](CNC(=O)CCOCCOCC[N+](C)(C)CCNC(=O)CCOCCOCC[N+](C)(C)CCNC(=O)COCCOCCNC(=O)COCCOCCNC(=O)CC[C@H](NC(=O)CC[C@H](NC(=O)CCCCCCCCCCCCCCC(=O)O)C(=O)O)C(=O)O)C(=O)N[C@@H](Cc2cccc(c2)CNC(=O)CO4)C(=O)N3)cc1	0.78
